- Target or test system: recombinant CaMKIIδ (Homo sapiens (Human))
- Assay info: CaMKIIδ biochemical assay (HTRF)
- Assay conditions: 10 pM CaMKIIδ, 110 nM calmodulin, 12 μM ATP, 1 hour; read-out: CAMKIID-HTRF-384V2 (IC50 - nM)
Measured property: log10 IC50 (log10 of the value in nM)
Heads up, the numbers here are log10 of IC50 in nM units.

Recorded log10 IC50 of CCN(CC)[C@@H](C)CNC(=O)c1cc(-c2cnn3ccc(-c4cccs4)nc23)nc(N2CC(NS(C)(=O)=O)C2)c1 , please.
-1.05

Endpoint output: log10 IC50 of CCN(CC)[C@@H](C)CNC(=O)c1cc(N[C@@H](C)C(=O)NC)nc(-c2cnn3ccc(-c4cccs4)nc23)c1 . Value?
0.03

Item CCN(CC)[C@@H](C)CNC(=O)c1cc(-c2cnn3ccc(-c4cccs4)nc23)nc(N2CCC(C#N)C2)c1 (stereo in doubt) has what recorded log10 IC50?
-0.74

Reported log10 IC50 for CCCNC(CNC(=O)c1ccnc(-c2cnn3ccc(-c4ccccc4)nc23)c1)C(C)C (centres unmarked) : what is it?
0.68

If you can, please state the reported log10 IC50 value of O=C(NCC1CCCCCN1)c1ccnc(-c2cnn3ccc(-c4cccs4)nc23)c1 (centres unmarked) .
1.78

Dear colleague, I am looking for the recorded log10 IC50 of the following molecule: CCNC(=O)[C@@H]1CCN1c1cc(C(=O)NC[C@H](C)N(CC)CC)cc(-c2cnn3ccc(-c4cccs4)nc23)n1
-0.66

Would you mind telling me what log10 IC50 value was observed for CCN[C@@H](CC)CNC(=O)c1ccnc(-c2cnn3ccc(-c4cccs4)nc23)c1 ?
0.56

Quick check: log10 IC50 of CCN(CC)[C@@H](C)CNC(=O)c1cc(-c2cnn3ccc(-c4cccs4)nc23)nc(N2CC[C@H]2C(=O)N(C)C)c1 ?
-0.77

Name the recorded log10 IC50 for CCN(CC)[C@@H](C)CNC(=O)c1cc(-c2cnn3ccc(-c4cccs4)nc23)nc(N2CC[C@@H](C(=O)NC)C2)c1 .
-0.64

So what's the measured log10 IC50 for this one? CCN(CC)[C@@H](C)CNC(=O)c1cc(-c2cnn3ccc(-c4cccs4)nc23)nc(N2CCC[C@H]2COC)c1
-0.20

// lookup log10 IC50 for CCN(CC)[C@@H](C)CNC(=O)c1cc(Cl)nc(-c2cnn3ccc(-c4cccs4)nc23)c1
-0.28

Returns the measured log10 IC50 for the input molecule. Input: Cc1cnc(-c2cnn3ccc(-c4ccccc4)nc23)cc1C(=O)N1CCCC[C@@H]1CN
-0.08

Quick check: log10 IC50 of CCN(CC)[C@@H](C)CNC(=O)c1cc(-c2cnn3ccc(-c4cccs4)nc23)nc(N2CC[C@@H]2COC)c1 ?
-0.34

I am curious: what log10 IC50 value has been reported for CC(C)(O)CNc1cc(C(=O)N2CC3CCC(C2)NC3)cc(-c2cnn3ccc(-c4cccs4)nc23)n1 (centres unmarked) ?
0.70

====

Assignment: determine reported IC50 for the given compounds.
- Target or test system: recombinant CaMKIIδ (Homo sapiens (Human), UniProt Q13557)
- Assay info: CaMKIIδ biochemical assay (HTRF)
- Assay conditions: 10 pM CaMKIIδ, 110 nM calmodulin, 12 μM ATP, 1 hour; read-out: CAMKIID-HTRF-384V2 (IC50 - nM)
Numeric only. Scale: nM

// lookup IC50 | system=recombinant CaMKIIδ (Homo sapiens (Human), UniProt Q13557) | key= CCN(CC)[C@@H](C)CNC(=O)c1cc(OCCN2CCOCC2)nc(-c2cnn3ccc(-c4cccs4)nc23)c1 [Example 352]
0.21

Give recombinant CaMKIIδ (Homo sapiens (Human), UniProt Q13557) IC50 for COC1CN(c2cc(C(=O)NCC3(N)CCC3)cc(-c3cnn4ccc(-c5cccs5)nc34)n2)C1 [Example 170]
19.9

What reported IC50 corresponds to CCN(CC)C(CNC(=O)c1ccnc(-c2cnn3ccc(-c4ccccc4)nc23)c1)C(C)C (stereo not shown) [Example 61] on recombinant CaMKIIδ (Homo sapiens (Human), UniProt Q13557)?
3.6

recombinant CaMKIIδ (Homo sapiens (Human), UniProt Q13557) / IC50 / CCN(CC)[C@@H](C)CNC(=O)c1cc(-c2cnn3ccc(-c4cccs4)nc23)nc(N2CC[C@H]2C(=O)NCCF)c1 [Example 281] : value?
0.46

What measured IC50 is associated with Cc1cnc(-c2cnn3ccc(-c4ccccc4)nc23)cc1C(=O)N1CCCC[C@@H]1[C@@H](C)N [Example 140] on recombinant CaMKIIδ (Homo sapiens (Human), UniProt Q13557)?
1.91

Notebook: pull reported IC50 for recombinant CaMKIIδ (Homo sapiens (Human), UniProt Q13557), entry CCN(CC)[C@@H](C)CNC(=O)c1cc(-c2cnn3ccc(-c4cccs4)nc23)nc(N2CC[C@H]2COC)c1 [Example 265]
0.42

Lab request: please report IC50 under test system recombinant CaMKIIδ (Homo sapiens (Human), UniProt Q13557) for CCC(CNC(=O)c1cc(-c2cnn3ccc(-c4cccs4)nc23)nc(N2CC[C@H]2C(=O)NC)c1)N(CC)CC (stereo partly shown) [Example 356]
0.7

====

I'd be grateful if you could share measured IC50 for these entries.
- Target or test system: recombinant CaMKIIδ (Homo sapiens (Human), UniProt Q13557)
- Assay info: CaMKIIδ biochemical assay (HTRF)
- Assay conditions: 10 pM CaMKIIδ, 110 nM calmodulin, 12 μM ATP, 1 hour; read-out: CAMKIID-HTRF-384V2 (IC50 - nM)
Kindly provide the numeric value in nM only, without the unit symbol.

Need IC50, item CCN(CC)[C@@H](C)CNC(=O)c1cc(N[C@H]2CCOC2)nc(-c2cnn3ccc(-c4cccs4)nc23)c1 [Example 203]
0.18

So what's the measured IC50 for this one? C[C@H](N)CNC(=O)c1ccnc(-c2cnn3ccc(-c4cccs4)nc23)c1 [Example 22]
13.9

# input compound: CN(C)c1cc(C(=O)N2CCCC[C@@H]2CN)cc(-c2cnn3ccc(-c4cccs4)nc23)n1 [Example 106] ; wanted: its IC50
1.59

What does the data say about its IC50? Entry: O=C(c1ccnc(-c2cnn3ccc(-c4cccs4)nc23)c1)N1CC2CCC(C1)NC2 (centres unmarked) [Example 76]
3.47

Which measured IC50 value corresponds to CCN(CC)[C@@H](C)CNC(=O)c1cc(Nc2ncc[nH]2)nc(-c2cnn3ccc(-c4cccs4)nc23)c1 [Example 241] ?
1.87

GET /values?readout=IC50&item= CCN(CC)[C@@H](C)CNC(=O)c1cc(-c2cnn3ccc(-c4cccs4)nc23)nc(N2CC[C@H](N)C2)c1 [Example 317]
0.07

Would you kindly share the measured IC50 for CCN(CC)[C@@H](C)CNC(=O)c1cc(-c2cnn3ccc(-c4cccs4)nc23)nc(N2CCN(C(C)=O)CC2)c1 [Example 204] ?
0.28

Which value of IC50 has been reported for CCN(CC)[C@@H](C)CNC(=O)c1cc(-c2cnn3ccc(-c4cccs4)nc23)nc(N2CCC[C@H]2C(N)=O)c1 [Example 270] in the records?
1.91

Field request: IC50 | item: CCN(CC)[C@@H](C)CNC(=O)c1cc(-c2cnn3ccc(-c4cccs4)nc23)nc(N2CC(C)(O)C2)c1 [Example 226]
0.1

IC50 for N[C@H]1CCN(C(=O)c2ccnc(-c3cnn4ccc(-c5ccccc5)nc34)c2)C1 [Example 87] ?
45.2

Field request: IC50 | item: CC[C@H](CNC(=O)c1cc(-c2cnn3ccc(-c4cccs4)nc23)nc(N2CC[C@H]2C(=O)NC)c1)N(CC)CC (single isomer, unassigned) [Example 356B]
3.04

State the recorded IC50 for this entry: CCN(CC)[C@@H](C)CNC(=O)c1cc(-c2c[nH]nc2C)nc(-c2cnn3ccc(-c4cccs4)nc23)c1 [Example 333]
0.22

Any idea what IC50 was measured for CC[C@@]1(CNC(=O)c2ccnc(-c3cnn4ccc(-c5cccs5)nc34)c2)CCCN1 [Example 11] ?
10.7

Could you tell me which IC50 is on file for CCN(CC)[C@@H](C)CNC(=O)c1cc(-c2cnn3ccc(-c4cccs4)nc23)nc(N2CCC(C(N)=O)CC2)c1 [Example 263] ?
0.51

====

- Target or test system: recombinant CaMKIIδ (Homo sapiens (Human), UniProt Q13557)
- Assay info: CaMKIIδ biochemical assay (HTRF)
- Assay conditions: 10 pM CaMKIIδ, 110 nM calmodulin, 12 μM ATP, 1 hour; read-out: CAMKIID-HTRF-384V2 (IC50 - nM)
- Description: CaMKIIδ Biochemical Assay The biochemical activity of recombinant CaMKIIδ was measured by monitoring the phosphorylation of a target peptide using Homogenous Time Resolved Fluorescence (HTRF) technology from CisBio Bioassays.
Provide the reported IC50 of each item.

Which measured IC50 value corresponds to NCC1CC(F)(F)CN1C(=O)c1ccnc(-c2cnn3ccc(-c4cccs4)nc23)c1 (stereo in doubt) [Example 78] ?
9.44 nM

Sample O=C(c1ccnc(-c2cnn3ccc(-c4ccccc4)nc23)c1)N1CCC2CCNCC21 (stereo not shown) [Example 95] — what was its IC50?
390 nM

# lookup: IC50 of O=C(NC[C@@H]1CCCN1)c1ccnc(-c2cnn3ccc(-c4cccs4)nc23)c1 [Example 34]
12.4 nM

Any idea what IC50 was measured for CCN(CC)[C@@H](C)CNC(=O)c1cc(-c2cnn3ccc(-c4cccs4)nc23)nc(N2CC(C(N)=O)C2)c1 [Example 208] ?
0.07 nM
